For each entry below, report its pIC50 value.
# System: R848-induced IL-6 secretion in human peripheral blood mononuclear cells (PBMCs)
# test: Inhibition of R848-induced IL-6 secretion in human PBMCs (IL-6 ELISA)
# Assay type: cell-based
# test_conditions: PBMC, R848 2.5 μg/mL, 20 h pre-incubation, 24 h stimulation
# Description: This experiment was carried out in RPMI 1640 medium containing 10% FBS and 1% penicillin/streptomycin, with each of the compounds at an initial test concentration of 1 μM. […] PBMCs (Batch No.: P122101102C; Milecell Biotechnology Inc.) were counted and diluted to a cell concentration of 1.25×10^6 cells/mL, and then added to the aforementioned compound-containing 96-well plate at 160 μL per well. […] The supernatant was collected and diluted 120-fold, then detected using an IL-6 ELISA kit. […]
One number for each entry, as −log10 of the molar value.

Worked examples, 4 molecules total:
{"molecule": "CN(C)c1cc2nn([C@H]3CC[C@H](CN4C[C@H](F)[C@@H](n5cc6cc(F)c(N7CCC(=O)NC7=O)cc6n5)C4)CC3)cc2cc1NC(=O)c1cnn2cccnc12", "pIC50": 7.97}
{"molecule": "CN(C)c1cc2nn([C@H]3CC[C@H](CN4C[C@H](F)[C@@H](n5cc6cc(C7CCC(=O)NC7=O)c(F)cc6n5)C4)CC3)cc2cc1NC(=O)c1cnn2cccnc12 (some centres unmarked)", "pIC50": 8.36}
{"molecule": "CN(C)c1cc2nn([C@H]3CC[C@H](CN4CC[C@@H](n5cc6c(F)cc(N7CCC(=O)NC7=O)cc6n5)C4)CC3)cc2cc1NC(=O)c1cnn2cccnc12", "pIC50": 8.07}
{"molecule": "CN(C)c1cc2nn([C@H]3CC[C@H](CN4C[C@@H](n5cc6cc(N7CCC(=O)NC7=O)ccc6n5)[C@@H](F)C4)CC3)cc2cc1NC(=O)c1cnn2cccnc12", "pIC50": 8.42}

Attention now turns to another entry.
Lookup: pIC50 / R848-induced IL-6 secretion in human peripheral blood mononuclear cells (PBMCs) / CN(C)c1cc2nn([C@H]3CC[C@H](CN4C[C@H](F)[C@@H](n5cc6cc(C7CCC(=O)NC7=O)ccc6n5)C4)CC3)cc2cc1NC(=O)c1cnn2cccnc12 (some centres unmarked)
8.12

// data source = patent US20260216348A1
